Where do these numbers come from? They come from ChEMBL document CHEMBL1145958.

Field: Ratio. Provide a value for each of the compounds that follow.
experiment: Selective inhibition of PDE5 versus PDE6 in retinal rod
Answers are plain numbers.

Check out these entries, answers already filled in.
* O=C(c1ccc(-c2cccnc2)o1)N1Cc2c(nc3ccccc3c2O)C1c1ccc2c(c1)OCO2 (stereo not drawn) | 144
* O=C(c1cc2ccc(O)cc2o1)N1Cc2c(nc3ccccc3c2O)C1c1ccc2c(c1)OCO2 (stereo not drawn) | 31

get_value(item= CN1CCN(C(=O)c2ccc(-c3ccc(C(=O)N4Cc5c(nc6ccccc6c5O)C4c4ccc5c(c4)OCO5)o3)cc2)CC1 (racemic) , readout=Ratio) returns 2

* * *

biological target: cGMP-specific 3',5'-cyclic phosphodiesterase (Homo sapiens); test: Inhibition of PDE5
parameter-measured: pKi
Answers are plain numbers, as −log10 of the molar value.

get_value(item= O=Cc1ccc(-c2ccc(C(=O)N3Cc4c(nc5ccccc5c4O)C3c3ccc4c(c3)OCO4)o2)cc1 (stereo unspecified) , readout=pKi) returns 8.59
